All figures here come from paper PMC6263338.

- assay target: Xanthine Oxidase (from buttermilk) (Bos taurus, UniProt P80457)
- Construct: Xanthine Oxidase (from buttermilk, Sigma Co., Ltd. X4875); purchased Sigma Co., Ltd. X4875; host or cells: buttermilk
- procedure summary: In vitro XOD inhibitory activity (Xanthine Oxidase Detection Kit)
- Type: biochemical
- particulars: read-out: XOD inhibitory activity % inhibition (1.5 mg/mL)
So basically every entry gets a class from its inhibition at 1500 µg/mL, ranges being zone 1: < 30%; zone 2: ≥ 30% and < 60%; zone 3: ≥ 60%

Incoming: For this compound, which bin applies? OC[C@H]1O[C@@H](OCC=Cc2ccc(Br)cc2)[C@H](O)[C@@H](O)[C@@H]1O [Compound 10l, 4-Bromocinnamyl β-D-glucopyranoside]
Outgoing: zone 2

Incoming: For this compound, which bin applies? "COc1ccc(C=CCO[C@@H]2O[C@H](CO[C@@H]3OC[C@H](O)[C@H](O)[C@H]3O)[C@@H](O)[C@H](O)[C@H]2O)cc1"
Outgoing: zone 3

Incoming: For this compound, which bin applies? OC[C@H]1O[C@@H](OC/C=C/c2ccccc2)[C@H](O)[C@@H](O)[C@@H]1O [Compound 10m, Cinnamyl β-D-glucopyranoside]
Outgoing: zone 2

Incoming: For this compound, which bin applies? OC[C@H]1O[C@@H](OCC=Cc2ccc3c(c2)OCO3)[C@H](O)[C@@H](O)[C@@H]1O [Compound 10g]
Outgoing: zone 1

Incoming: For this compound, which bin applies? COc1ccc(C=CCO[C@@H]2O[C@H](CO)[C@@H](O)[C@H](O)[C@H]2O)cc1O [Compound 16d]
Outgoing: zone 2

Incoming: For this compound, which bin applies? COc1cc(C=CCO[C@@H]2O[C@H](CO)[C@@H](O)[C@H](O)[C@H]2O)cc(OC)c1 [Compound 10c]
Outgoing: zone 1

Incoming: For this compound, which bin applies? OC[C@H]1O[C@@H](OCC=Cc2ccc(Cl)cc2)[C@H](O)[C@@H](O)[C@@H]1O [Compound 10j, 4-Chlorocinnamyl β-D-glucopyranoside]
Outgoing: zone 2

Incoming: For this compound, which bin applies? OC[C@H]1O[C@@H](OCC=Cc2ccccc2F)[C@H](O)[C@@H](O)[C@@H]1O [Compound 10i, 2-Fluorocinnamyl β-D-glucopyranoside]
Outgoing: zone 1

Incoming: For this compound, which bin applies? OC[C@H]1O[C@@H](OCC=Cc2ccc(O)cc2)[C@H](O)[C@@H](O)[C@@H]1O [Compound 16a, 4-Hydroxycinnamyl β-D-glucopyranoside]
Outgoing: zone 2

Incoming: For this compound, which bin applies? COc1cccc(C=CCO[C@@H]2O[C@H](CO)[C@@H](O)[C@H](O)[C@H]2O)c1OC [Compound 10e]
Outgoing: zone 1

Incoming: For this compound, which bin applies? OC[C@H]1O[C@@H](OCC=Cc2ccc(F)c(F)c2)[C@H](O)[C@@H](O)[C@@H]1O [Compound 10k, 3,4-Difluorocinnamyl β-D-glucopyranoside]
Outgoing: zone 2

Incoming: For this compound, which bin applies? "O[C@@H]1[C@@H](O)[C@H](OCC=Cc2ccccc2)O[C@H](CO[C@@H]2OC[C@@H](O)[C@H](O)[C@H]2O)[C@H]1O"
Outgoing: zone 3

###

- assay target: AChE (from drosophila) (Drosophila melanogaster, UniProt P07140)
- Construct: purchased Jing Peng Bio-Pesticide Co., Ltd. Shandong, P. R. China
- procedure summary: In vitro AChE inhibitory activity (Acetylcholinesterase Detection Kit)
- Type: biochemical
- particulars: read-out: AChE inhibitory activitiy IC50; seven concentrations; mean ± SD of triplicate independent experiments; – = not active
Form field: IC50 (one value per entry).
Enter your answer as a number in µM; do not include the unit.

Below are worked cases with known answers.
{"columns": ["compound", "u", "IC50"],
 "data": [
  ["OC[C@H]1O[C@@H](OCC=Cc2cccc(O)c2)[C@H](O)[C@@H](O)[C@@H]1O [Compound 16b, 3-Hydroxycinnamyl β-D-glucopyranoside]", "µM", 7.62],
  ["OC[C@H]1O[C@@H](OCC=Cc2ccc(Cl)cc2)[C@H](O)[C@@H](O)[C@@H]1O [Compound 10j, 4-Chlorocinnamyl β-D-glucopyranoside]", "µM", 38.3],
  ["COc1ccc(C=CCO[C@@H]2O[C@H](CO)[C@@H](O)[C@H](O)[C@H]2O)cc1O [Compound 16d]", "µM", 10.3]
]}

Incoming: Hello, I am looking for reported IC50 with AChE (from drosophila) (Drosophila melanogaster, UniProt P07140) for COc1cc(C=CCO[C@@H]2O[C@H](CO)[C@@H](O)[C@H](O)[C@H]2O)ccc1O [Compound 16c] . Could you help?
Outgoing: 25.7

Incoming: Hello, I am looking for reported IC50 with AChE (from drosophila) (Drosophila melanogaster, UniProt P07140) for OC[C@H]1O[C@@H](OCC=Cc2ccc(Br)cc2)[C@H](O)[C@@H](O)[C@@H]1O [Compound 10l, 4-Bromocinnamyl β-D-glucopyranoside] . Could you help?
Outgoing: 22.4

Incoming: Hello, I am looking for reported IC50 with AChE (from drosophila) (Drosophila melanogaster, UniProt P07140) for COc1cccc(C=CCO[C@@H]2O[C@H](CO)[C@@H](O)[C@H](O)[C@H]2O)c1OC [Compound 10e] . Could you help?
Outgoing: 71.2

Incoming: Hello, I am looking for reported IC50 with AChE (from drosophila) (Drosophila melanogaster, UniProt P07140) for "O[C@@H]1[C@@H](O)[C@H](OCC=Cc2ccccc2)O[C@H](CO[C@@H]2OC[C@@H](O)[C@H](O)[C@H]2O)[C@H]1O" . Could you help?
Outgoing: 3.71
